# TEST SYSTEM: nAChR formed by the α7 subunit isoform (Rattus norvegicus)
# Sequence (Q05941 23-502): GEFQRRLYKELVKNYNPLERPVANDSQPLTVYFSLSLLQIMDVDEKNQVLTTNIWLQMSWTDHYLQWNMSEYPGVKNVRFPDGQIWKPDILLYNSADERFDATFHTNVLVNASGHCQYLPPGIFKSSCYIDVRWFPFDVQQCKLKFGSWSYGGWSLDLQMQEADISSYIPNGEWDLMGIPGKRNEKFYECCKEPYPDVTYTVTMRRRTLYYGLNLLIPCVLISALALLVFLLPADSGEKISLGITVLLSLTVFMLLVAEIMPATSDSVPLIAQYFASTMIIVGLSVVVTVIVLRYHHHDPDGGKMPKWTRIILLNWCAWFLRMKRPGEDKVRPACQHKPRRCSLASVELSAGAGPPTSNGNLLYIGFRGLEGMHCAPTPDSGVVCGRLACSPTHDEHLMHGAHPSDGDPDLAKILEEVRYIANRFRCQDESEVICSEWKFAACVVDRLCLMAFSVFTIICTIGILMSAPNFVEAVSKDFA
# ASSAY COMMENT: biochemical
# Type: binding
QUANTITY MEASURED: pIC50
Worth noting: pIC50 values are minus log10 of concentrations stated in mol/L.

Below: 2 compounds and their reported pIC50.
CN1CCCC(Oc2cccnc2)C1 (racemic): 4.72
c1cncc(OC2CCCNCC2)c1 (racemic): 4.70

API: the following record is the query input.
Asked: Output pIC50 of CN1CCC(Oc2cccnc2)C1 (racemic)
Given back: 4.80

---

Measured IC50, listed per entry.
# TEST SYSTEM: neuronal nicotinic receptors (α4β2 subtype of nicotinic receptors) (Rattus norvegicus, UniProt P09483+P12390)
# Construct: The forebrain (÷cerebellum) from a male Wistar rat (150–250 g) is homogenized; from tissue; host or cells: rat forebrain (without cerebellum) membrane homogenate
# Sequence (P09483 31-630): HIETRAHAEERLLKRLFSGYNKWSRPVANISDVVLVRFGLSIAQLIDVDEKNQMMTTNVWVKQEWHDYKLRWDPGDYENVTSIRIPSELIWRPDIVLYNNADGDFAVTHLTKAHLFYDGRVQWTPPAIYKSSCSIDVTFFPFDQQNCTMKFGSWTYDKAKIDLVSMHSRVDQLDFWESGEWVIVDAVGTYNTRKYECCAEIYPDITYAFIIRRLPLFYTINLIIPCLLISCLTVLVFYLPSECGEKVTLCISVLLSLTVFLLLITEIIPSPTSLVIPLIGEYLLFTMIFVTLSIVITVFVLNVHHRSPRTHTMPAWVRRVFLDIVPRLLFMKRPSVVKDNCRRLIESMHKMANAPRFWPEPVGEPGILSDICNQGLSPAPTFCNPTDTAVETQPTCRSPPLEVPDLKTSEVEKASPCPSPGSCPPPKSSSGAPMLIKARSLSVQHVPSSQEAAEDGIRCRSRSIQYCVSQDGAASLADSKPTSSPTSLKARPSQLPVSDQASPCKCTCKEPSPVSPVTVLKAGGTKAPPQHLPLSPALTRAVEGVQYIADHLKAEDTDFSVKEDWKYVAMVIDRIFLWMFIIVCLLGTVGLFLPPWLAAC
# Sequence (P12390 25-500): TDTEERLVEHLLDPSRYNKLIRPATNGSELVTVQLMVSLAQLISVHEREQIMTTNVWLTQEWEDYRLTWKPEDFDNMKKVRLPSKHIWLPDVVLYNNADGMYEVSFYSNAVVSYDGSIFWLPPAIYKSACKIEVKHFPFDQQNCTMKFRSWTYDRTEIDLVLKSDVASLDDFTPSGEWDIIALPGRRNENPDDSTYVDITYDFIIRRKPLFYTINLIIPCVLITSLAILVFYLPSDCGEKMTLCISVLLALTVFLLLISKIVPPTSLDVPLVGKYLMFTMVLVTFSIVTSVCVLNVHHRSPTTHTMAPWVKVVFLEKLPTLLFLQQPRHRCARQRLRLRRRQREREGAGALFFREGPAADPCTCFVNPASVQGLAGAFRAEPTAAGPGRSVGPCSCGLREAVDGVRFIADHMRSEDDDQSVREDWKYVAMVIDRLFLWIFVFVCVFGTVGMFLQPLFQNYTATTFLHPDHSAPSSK
# ASSAY COMMENT: In vitro inhibition of 3H-epibatidin binding
# RECORDED CONDITIONS: rat forebrain homogenate, 0.3 nM 3H-epibatidin; read-out: 3H-epibatidin IC50
# Protocol: In Vitro Inhibition of ^3H-epibatidin Binding The high affinity binding site for ^3H-epibatidin is most certainly binding to the α4β2 subtype of nicotinic receptors. […] Assay: Aliquots of 2.0 ml homogenate are added to 0.100 ml of test solution and 0.100 ml of ^3H-epibatidin (0.3 nM, final concentration), mixed and incubated for 60 min at room temperature. Non-specific binding is determined using (−)-nicotine (30 μM, final concentration). […]
Provide the reading as a plain figure in nM.

Below: 2 compounds and their reported IC50.
CN1CCCC(Oc2cccnc2)C1 (racemic) [Compound 3a]: 720
CN1CCC(Oc2cccnc2)C1 (racemic) [Compound 1a]: 700

Asked: Output IC50 of c1cncc(OC2CCCNCC2)c1 (racemic) [Compound 7b]
Given back: 300

---

# TEST SYSTEM: neuronal nicotinic receptors (α4β2 subtype of nicotinic receptors) (Rattus norvegicus, UniProt P09483+P12390)
# Construct: The forebrain (÷cerebellum) from a male Wistar rat (150–250 g) is homogenized; from tissue; host or cells: rat forebrain (without cerebellum) membrane homogenate
# ASSAY COMMENT: In vitro inhibition of 3H-epibatidin binding
QUANTITY MEASURED: IC50 (µM)
Provide the reading as a plain figure in µM.

Asked: Output IC50 of c1cncc(OC2CCNC2)c1 (racemic) [Compound 1b, (±)-3-Oxy-(3-pyridyl)-pyrrolidine]
Given back: 0.41

---

# TEST SYSTEM: nAChR formed by the α7 subunit isoform (Rattus norvegicus)
# ASSAY COMMENT: biochemical
# Type: binding
# RECORDED CONDITIONS: read-out: 3H-α-bungarotoxin IC50
QUANTITY MEASURED: IC50

Asked: Output IC50 of c1cncc(OC2CCNC2)c1 (racemic) [Compound 1b, (±)-3-Oxy-(3-pyridyl)-pyrrolidine]
Given back: > 30 µM
